Molecular target: T1, Soluble CDCP1 extracellular domain (CDCP1-ECD) (SEQ ID NO:30) fused to Streptavidin Binding Protein (SBP) (human, UniProt Q9H5V8 30-663)
T1 construct: also called SBP-CDCP1-ECD
T1 sequence: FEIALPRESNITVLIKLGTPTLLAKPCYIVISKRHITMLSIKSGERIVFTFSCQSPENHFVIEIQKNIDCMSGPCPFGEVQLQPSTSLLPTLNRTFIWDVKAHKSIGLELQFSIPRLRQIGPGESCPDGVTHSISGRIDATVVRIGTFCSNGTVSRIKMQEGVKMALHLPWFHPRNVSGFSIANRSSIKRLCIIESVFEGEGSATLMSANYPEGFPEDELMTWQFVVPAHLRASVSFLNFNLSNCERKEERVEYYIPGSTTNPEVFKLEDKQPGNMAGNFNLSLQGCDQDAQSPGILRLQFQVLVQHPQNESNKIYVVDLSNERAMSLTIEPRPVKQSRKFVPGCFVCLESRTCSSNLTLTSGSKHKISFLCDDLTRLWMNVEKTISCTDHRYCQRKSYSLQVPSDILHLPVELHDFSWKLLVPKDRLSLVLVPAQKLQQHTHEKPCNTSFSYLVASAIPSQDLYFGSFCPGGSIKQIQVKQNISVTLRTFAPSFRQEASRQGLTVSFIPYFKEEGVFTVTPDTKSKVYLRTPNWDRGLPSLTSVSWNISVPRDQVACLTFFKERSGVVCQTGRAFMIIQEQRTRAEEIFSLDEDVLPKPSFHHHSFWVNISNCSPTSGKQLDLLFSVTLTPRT
Test: ELISA on captured SBP-CDCP1-ECD, ratio relative to chimeric CUB4 (chHC4)
Assay metric: relative binding ratio
Give the figure only, with no unit attached.

The cases that follow already have their relative binding ratio on record.
hHC4-c / hLC4-M (antibody, V domains shown) VH: EVQLVESGGGLVQPGGSLRLSCAASGFTFNSYGMSWVRQAPGKGLEWVATISSGGSYTYYPDSVKGRFTISRDNAKNSLYLQMNSLRAEDTAVYYCARHPDYDGVWFAYWGQGTLVTVSS VL: EIVLTQSPATLSLSPGERATMSCGASSSVFYLHWYQQKPGLAPRLWIYDTSKLASGIPDRFSGSGSGTDFTLTISRLEPEDFAVYYCQQWNSNPPTFGGGTKVEIK : 0.71
hHC4-07 / hLC4-d (antibody, V domains shown) VH: EVQLLESGGGLVQPGGSLRLSCAASGFTFNSYAMSWVRQAPGKGLEWVSTISSGGSYTYYPDSVKGRFTISRDNSKNTLYLQMNSLRAEDTAVYYCAKHPDYDGVWFAYWGQGTLVTVSS VL: EIVMTQSPATLSVSPGERATLSCSVSSSVFYVHWYQQKPGQAPRLLIYDTSKLASGIPARFSGSGSGTEYTLTISSLQSEDFAVYYCQQWNSNPPTFGGGTKVEIK : 0.04
hHC4-I / hLC4-J (antibody, V domains shown) VH: EVQLLESGGGLVQPGGSLRLSCAASGFTFNSYAMSWVRQAPGKGLEWVSAISSGGSYTYYADSVKGRFTISRDNSKNTLYLQMNSLRAEDTAVYYCAKHPDYDGVWFAYWGQGTLVTVSS VL: EIVMTQSPATLSLSPGERATMSCRASSSVFYLHWYQQKPGQAPRLWIYDTSKLASGIPARFSGSGSGTDFTLTISSLQPEDFAVYYCQQWNSNPPTFGGGTKVEIK : 0.11
hHC4-c / hLC4-L2 (antibody, V domains shown) VH: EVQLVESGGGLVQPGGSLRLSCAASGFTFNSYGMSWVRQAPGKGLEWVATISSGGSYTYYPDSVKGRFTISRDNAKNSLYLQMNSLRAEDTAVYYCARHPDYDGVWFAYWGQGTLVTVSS VL: EIVLTQSPATLSLSPGERATMSCSVSSSVFYLHWYQQKPGQAPRLWIYDTSKLASGIPARFSGSGSGTDFTLTISSLEPEDFAVYYCQQWNSNPPTFGGGTKVEIK : 0.53

Next binder, please.
Request: Quick one: relative binding ratio for hHC4-a / hLC4-c (antibody, V domains shown) VH: EVQLVESGGGLVKPGGSLRLSCAASGFTFNSYGMSWVRQAPGKGLEWVSTISSGGSYTYYPDSVKGRFTISRDNAKNSLYLQMNSLRAEDTAVYYCARHPDYDGVWFAYWGQGTLVTVSS VL: EIVMTQSPATLSVSPGERATLSCSVSSSVFYVHWYQQKPGQAPRLLIYDTSKLASGIPARFSGSGSGTEFTLTISSLQSEDFAVYYCQQWNSNPPTFGGGTKVEIK ?
Result: 0.35

Origin of measurements: patent US20110052582A1
